# Experimental Details: solvent given as SMILES
# Condition Label: in c1ccccc1
Simple rule here: solvation free energy, 298 K less than -4 kcal/mol is fulfilled, otherwise not fulfilled.

Please let me know if CC(C)C(C)C(C)C shows solvation free energy, 298 K below -4 kcal/mol. fulfilled

Please let me know if C=C(C)C shows solvation free energy, 298 K below -4 kcal/mol. not fulfilled

Please let me know if C=CC shows solvation free energy, 298 K below -4 kcal/mol. not fulfilled

Please let me know if C[N+](=O)[O-] shows solvation free energy, 298 K below -4 kcal/mol. fulfilled

Please let me know if CCCCCCCC shows solvation free energy, 298 K below -4 kcal/mol. fulfilled

Please let me know if CCCCCCCCC shows solvation free energy, 298 K below -4 kcal/mol. fulfilled

Please let me know if CC(C)CCC(C)C shows solvation free energy, 298 K below -4 kcal/mol. fulfilled

Please let me know if CCO shows solvation free energy, 298 K below -4 kcal/mol. not fulfilled

Measured values drawn from the CombiSolv-Exp solvation set (Vermeire and Green 2021) for this set.
